The reported numbers originate from PubChem BioAssay AID1845204.

Test system: HSSY-II tumor spheroid viability
protocolText: Anticancer human tumor HSSY-II cell line growth inhibition;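 also: spheroids exposed to compounds for seven days before reading; percent of DMSO vehicle control viability so 100% = untreated level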
settings: second compound 0.0003 µM; first compound 0.1 µM; stronger effect = lower value; spheroids with HUVEC and MSC
experimentalEndpoint: viability, T/C (%)
# value in %; strip the unit string

Answered cases to consult:
1) COc1cc(C)[nH]c(=O)c1CN1CCc2c(Cl)cc(C(OC)C3COC3)c(Cl)c2C1=O (stereo unspecified) + COc1cc2c(cc1O)CCNC21CSC2c3c(OC(C)=O)c(C)c4c(c3C(COC1=O)N1C(O)C3Cc5cc(C)c(OC)c(O)c5C(C21)N3C)OCO4
15.3
2) COc1ccc([C@@H](O)c2cc(-c3ncnc4cc(N5CCOCC5)ccc34)c(F)cc2Cl)nn1 + COc1cc2c(cc1O)CCNC21CSC2c3c(OC(C)=O)c(C)c4c(c3C(COC1=O)N1C(O)C3Cc5cc(C)c(OC)c(O)c5C(C21)N3C)OCO4
10.5
3) Cc1cc(C)c(CNC(=O)c2cc(-c3ccc(CN4CCOCC4)cc3)cc3c2cnn3C2CCCC2)c(=O)[nH]1 + COc1cc2c(cc1O)CCNC21CSC2c3c(OC(C)=O)c(C)c4c(c3C(COC1=O)N1C(O)C3Cc5cc(C)c(OC)c(O)c5C(C21)N3C)OCO4
15.1
4) [2H]c1nc(C)nc([2H])c1-c1cc(NC[C@@H](C)c2cccc3c(C(=O)NC)ccnc23)ncn1 + COc1cc2c(cc1O)CCNC21CSC2c3c(OC(C)=O)c(C)c4c(c3C(COC1=O)N1C(O)C3Cc5cc(C)c(OC)c(O)c5C(C21)N3C)OCO4
16
5) CC(C)n1c(=O)n(C)c2cnc3cc(F)c(-c4ccc(OCCCN5CCCCC5)nc4)cc3c21 + COc1cc2c(cc1O)CCNC21CSC2c3c(OC(C)=O)c(C)c4c(c3C(COC1=O)N1C(O)C3Cc5cc(C)c(OC)c(O)c5C(C21)N3C)OCO4
13.8

Here's the next entry for you.
Query :: Which viability, T/C reading was recorded for the compound CC1COCCN1c1cc(-c2ccnn2C)c2ccnc(-c3ccn[nH]3)c2n1 (stereo unspecified) + COc1cc2c(cc1O)CCNC21CSC2c3c(OC(C)=O)c(C)c4c(c3C(COC1=O)N1C(O)C3Cc5cc(C)c(OC)c(O)c5C(C21)N3C)OCO4 ?
Result :: 5.4
